# Test target: BRD4(1,2) (Homo sapiens, UniProt O60885)
# Protocol notes: BROMOscan ligand-binding assay
# Recorded conditions: BRD4(1,2)
Readout name: Kd (µM)
Give your result in µM as a bare value.

Qu. Consider the compound shown here: COc1cc(C#N)ccc1S(=O)(=O)Nc1ccc2c(c1)cc(C)c(=O)n2C What is its recorded Kd?
Ans. 15

---

Overview of recorded Kd for various compounds
# Test target: WDR9(2) (Homo sapiens, UniProt Q9NSI6)
# Sequence (Q9NSI6 1313-1418 limits assumed): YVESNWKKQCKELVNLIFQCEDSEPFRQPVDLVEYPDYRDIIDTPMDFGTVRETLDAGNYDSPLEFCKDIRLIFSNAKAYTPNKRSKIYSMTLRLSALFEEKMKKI
# Protocol notes: BROMOscan ligand-binding assay
# Recorded conditions: BROMOscan Gene Symbol WDR9(2)
Give your result in µM as a bare value.

[[record]]
item_smiles = "Cc1noc(C)c1-c1ccc2c(c1)nc(CCc1ccccc1)n2CCN1CCOCC1"
obs_value = 30


Could you now look at the following compound, please?
Qu. Consider the compound shown here: COc1ccc(CCc2nc3cc(-c4c(C)noc4C)ccc3n2CCN2CCOCC2)cc1 What is its recorded Kd?
Ans. 41

---

# Test target: CREBBP (Homo sapiens, UniProt Q92793)
# Sequence (Q92793 1085-1192 limits assumed): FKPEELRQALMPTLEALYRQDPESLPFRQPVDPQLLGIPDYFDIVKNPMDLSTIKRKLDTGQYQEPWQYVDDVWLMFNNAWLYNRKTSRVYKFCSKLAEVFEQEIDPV
# Protocol notes: BROMOscan ligand-binding assay
# Recorded conditions: CREBBP
Readout name: Kd (µM)
Give your result in µM as a bare value.

[[record]]
compound = "COc1cc(C#N)ccc1S(=O)(=O)Nc1ccc2c(c1)cc(C)c(=O)n2C [NI 57]"
obs_value = 13


Could you now look at the following compound, please?
Qu. Consider the compound shown here: COc1cc2c(cc1NS(=O)(=O)c1ccc(Br)cc1C)n(C)c(=O)n2C [OF-1] What is its recorded Kd?
Ans. 45

---

Overview of recorded inhibition at 10 µM for various compounds
# Test target: DNMT3B/3L (Homo sapiens)
# Construct: purchased DiscoverX BROMOscan (bromodomains); SGC in-house methyltransferase panel
# Protocol notes: Methyl transferase scintillation proximity assay
# Type: biochemical
# Recorded conditions: average of two measurements, read-out: MTases Inhibition (%)
Give your result in % as a bare value.

Some solved cases for reference:
[[record]]
item_smiles = "CO[C@H]1CNC[C@@H](OCC2CCC(F)(F)CC2)[C@@H]1Nc1ncc(-c2cncc(C)c2)c2cc(C)c(=O)[nH]c12"
readout_name = "inhibition at 10 µM"
measurement_units = "%"
obs_value = 18

[[record]]
item_smiles = "Cc1nnc2c3ccccc3c(N[C@@H](C)[C@H](c3ccccc3)N(C)C)nn12"
readout_name = "inhibition at 10 µM"
measurement_units = "%"
obs_value = -1

[[record]]
item_smiles = "Cc1c(NC(=O)c2cc(C(N)=O)nc3cc(F)ccc23)c(C(F)(F)F)nn1Cc1ccc(C(C)(C)C)cc1"
readout_name = "inhibition at 10 µM"
measurement_units = "%"
obs_value = -6


Qu. Consider the compound shown here: COc1cc(Cl)c(C(=O)N[C@@H](CN[C@H]2CC[C@@H](N)CC2)Cc2ccc(C#N)cc2)cc1-c1ccc(CN[C@H](C)c2ccc(C)cc2)o1 What is its recorded inhibition at 10 µM?
Ans. 28

Qu. Query CN1C[C@H](Nc2cnn(C)c(=O)c2Br)C[C@H](c2ccccc2)C1 next
Ans. 1

Qu. Query Cc1c(NC(=O)c2cc(C(N)=O)nc3cc(F)ccc23)c(C(F)(F)F)nn1Cc1ccc(C#N)cc1 next
Ans. 1

Qu. Query CN(C)CCCOc1ccc(-c2cc(NCCCn3cccn3)nc(S(C)(=O)=O)n2)cc1 next
Ans. 0
